# System Under Test: Mitogen-activated protein kinase 14 (Homo sapiens)
# Sequence (Q16539 whole entry): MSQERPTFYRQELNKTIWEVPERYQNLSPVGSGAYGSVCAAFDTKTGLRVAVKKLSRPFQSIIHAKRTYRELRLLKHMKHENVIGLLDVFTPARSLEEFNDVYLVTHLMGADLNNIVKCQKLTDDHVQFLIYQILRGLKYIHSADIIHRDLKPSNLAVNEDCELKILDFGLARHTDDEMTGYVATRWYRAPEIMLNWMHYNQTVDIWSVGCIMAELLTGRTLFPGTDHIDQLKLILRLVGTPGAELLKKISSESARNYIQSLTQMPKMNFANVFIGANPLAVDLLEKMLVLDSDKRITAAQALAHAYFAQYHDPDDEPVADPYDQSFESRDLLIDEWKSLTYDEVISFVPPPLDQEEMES
# Protocol Details: Inhibition of p38alpha
Consider the cut-off 4 nM. If the recorded IC50 is strictly smaller, the label is TRUE; if not, the label is FALSE.

>  <Cpd Smiles>
CN(C)CCOc1nc(-c2ccccc2Cl)c2c(n1)N(c1c(Cl)cccc1Cl)C(=O)NC2

>  <Classification>
FALSE

$$$$
>  <Cpd Smiles>
CNc1nc(-c2ccccc2Cl)c2c(n1)N(c1c(Cl)cccc1Cl)C(=O)NC2

>  <Classification>
TRUE

$$$$
>  <Cpd Smiles>
O=C1NCc2c(-c3ccccc3Cl)cc(O)cc2N1c1c(Cl)cccc1Cl

>  <Classification>
TRUE

$$$$
>  <Cpd Smiles>
CN(C)CCN1CCN(c2nc(-c3ccccc3Cl)c3c(n2)N(c2c(Cl)cccc2Cl)C(=O)NC3)CC1

>  <Classification>
TRUE

$$$$
>  <Cpd Smiles>
CS(=O)(=O)c1nc(-c2ccccc2Cl)c2c(n1)N(c1c(Cl)cccc1Cl)C(=O)NC2

>  <Classification>
FALSE

$$$$
>  <Cpd Smiles>
CN(C)c1nc(-c2ccccc2Cl)c2c(n1)N(c1c(Cl)cccc1Cl)C(=O)NC2

>  <Classification>
TRUE

$$$$
>  <Cpd Smiles>
CC(C)N1CCC(Nc2nc(-c3ccccc3Cl)c3c(n2)N(c2c(Cl)cccc2Cl)C(=O)NC3)CC1

>  <Classification>
TRUE

$$$$
>  <Cpd Smiles>
C[C@@H]1CN(c2nc(-c3ccc(Cl)cc3Cl)c3c(n2)N(c2c(Cl)cccc2Cl)C(=O)NC3)C[C@H](C)O1

>  <Classification>
TRUE

$$$$

Data credit: ChEMBL document CHEMBL1145325
